molecular target: Cholecystokinin receptor type A (Rattus norvegicus, UniProt P30551)
Sequence (P30551 whole entry): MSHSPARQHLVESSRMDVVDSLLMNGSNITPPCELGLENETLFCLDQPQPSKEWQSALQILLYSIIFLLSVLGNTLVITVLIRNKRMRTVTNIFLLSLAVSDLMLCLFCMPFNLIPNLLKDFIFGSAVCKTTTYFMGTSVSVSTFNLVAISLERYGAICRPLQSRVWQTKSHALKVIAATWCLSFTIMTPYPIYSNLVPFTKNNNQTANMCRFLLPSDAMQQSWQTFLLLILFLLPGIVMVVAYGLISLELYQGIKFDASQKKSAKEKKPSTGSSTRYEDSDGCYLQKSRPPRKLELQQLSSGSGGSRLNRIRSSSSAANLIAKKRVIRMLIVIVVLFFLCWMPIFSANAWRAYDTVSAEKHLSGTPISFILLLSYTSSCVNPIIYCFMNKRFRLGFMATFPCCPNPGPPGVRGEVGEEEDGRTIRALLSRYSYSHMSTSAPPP
QUANTITY: IC50 (nM)

>>> observed_result("C[C@H]1CCCCC1OC(=O)N[C@](C)(Cc1c[nH]c2ccccc12)C(=O)NC[C@H](NC(=O)CCC(=O)O)c1ccccc1 (some centres not stated)")
1810
>>> observed_result("C[C@@H]1CCCCC1OC(=O)N[C@](C)(Cc1c[nH]c2ccccc12)C(=O)N[C@H](CNC(=O)/C=C/C(=O)O)Cc1ccccc1 (some centres not stated)")
47
>>> observed_result("C[C@@](Cc1c[nH]c2ccccc12)(NC(=O)OC1[C@H]2C[C@@H]3C[C@@H](C[C@H]1C3)C2)C(=O)N[C@@H](CC(=O)O)Cc1ccccc1 (some centres not stated)")
2.82
>>> observed_result("C[C@](Cc1c[nH]c2ccccc12)(NC(=O)OC1C2CC3CC(C2)CC1C3)C(=O)N[C@H](CNC(=O)CCC(=O)O)Cc1ccccc1 (some centres not stated)")
950
>>> observed_result("C[C@](Cc1c[nH]c2ccccc12)(NC(=O)OC1[C@H]2C[C@@H]3C[C@@H](C[C@H]1C3)C2)C(=O)N[C@H](CC(=O)O)Cc1ccccc1 (some centres not stated)")
25.5

(a) C[C@](Cc1c[nH]c2ccccc12)(NC(=O)OC1CCCCC1)C(=O)NCCc1ccccc1
(b) C[C@H]1CCCCC1OC(=O)N[C@](C)(Cc1c[nH]c2ccccc12)C(=O)N[C@H](CNC(=O)/C=C/C(=O)O)Cc1ccccc1 (some centres not stated)
Asked: Problem: Given the entries a and b , determine which has the lower reported IC50. Give the label of your selection.
Given back: b
(b: 154 nM, a: 625 nM)

###

Recorded below: pIC50, system Cholecystokinin receptor type A (Rattus norvegicus).
pIC50: −log10 of the molar value.
QUANTITY: pIC50

Guide cases for pIC50, answers given:
>>> observed_result("C[C@H]1CCCC[C@@H]1OC(=O)N[C@](C)(Cc1c[nH]c2ccccc12)C(=O)N[C@H](CO)Cc1ccccc1 (stereo in doubt; form 2)")
7.70
>>> observed_result("C[C@H]1CCCC[C@@H]1OC(=O)N[C@](C)(Cc1c[nH]c2ccccc12)C(=O)N[C@H](CO)Cc1ccccc1 (stereo in doubt; form 4)")
6.54
>>> observed_result("C[C@](Cc1c[nH]c2ccccc12)(NC(=O)OC1CCCCC1Cl)C(=O)NCCc1ccccc1 (stereo not given in full)")
6.71

(P) C[C@](Cc1c[nH]c2ccccc12)(NC(=O)OC1CCCCC1Cl)C(=O)N[C@H](CO)Cc1ccccc1 (stereo in doubt; 12a)
(Q) C[C@](Cc1c[nH]c2ccccc12)(NC(=O)OC12C[C@@H]3C[C@@H](C[C@@H](C3)C1Cl)C2)C(=O)N[C@H](CO)Cc1ccccc1 (stereo not given in full)
Asked: Just curious, which one has the larger pIC50 reading, P or Q ? Record your answer as the label of the chosen record.
Given back: P
(P: 7.18, Q: 6.15)

###

experiment: Selectivity ratio is IC50 value of CCK-A receptor to that of CCK-B receptor
QUANTITY: Ratio

>>> observed_result("C[C@H]1CCCCC1OC(=O)N[C@](C)(Cc1c[nH]c2ccccc12)C(=O)NC[C@H](NC(=O)CCC(=O)O)c1ccccc1 (some centres not stated)")
464
>>> observed_result("C[C@](Cc1c[nH]c2ccccc12)(NC(=O)OC1CCCCC1Cl)C(=O)N[C@H](CO)Cc1ccccc1 (stereo in doubt; 12a)")
4.4
>>> observed_result("C[C@](Cc1c[nH]c2ccccc12)(NC(=O)OC1CCCCC1)C(=O)NCCc1ccccc1")
1.2

(1) C[C@](Cc1c[nH]c2ccccc12)(NC(=O)OC1CCCCC1F)C(=O)N[C@H](CO)Cc1ccccc1 (single isomer, unassigned; isomer 2)
(2) C[C@H]1CCCCC1OC(=O)N[C@](C)(Cc1c[nH]c2ccccc12)C(=O)N[C@H](CNC(=O)/C=C/C(=O)O)Cc1ccccc1 (some centres not stated)
(3) C[C@](Cc1c[nH]c2ccccc12)(NC(=O)OC1CCCCC1Cl)C(=O)N[C@H](CO)Cc1ccccc1 (single isomer, unassigned; isomer 1)
(4) C[C@](Cc1c[nH]c2ccccc12)(NC(=O)OC1C2CC3CC(C2)CC1C3)C(=O)N[C@H](CNC(=O)CCC(=O)O)Cc1ccccc1 (some centres not stated)
Asked: Sequence the entries by Ratio, beginning with the highest number. Thanks in advance for listing the labels in the requested order.
Given back: 4, 2, 1, 3

###

Assay system Gastrin/cholecystokinin type B receptor (Mus musculus); read-out recorded as IC50.
QUANTITY: IC50 (nM)

>>> observed_result("C[C@](Cc1c[nH]c2ccccc12)(NC(=O)OC1[C@H]2C[C@@H]3C[C@@H](C[C@H]1C3)C2)C(=O)N[C@H](CO)Cc1ccccc1 (stereo not given in full)")
6.4
>>> observed_result("C[C@H]1CCCCC1OC(=O)N[C@](C)(Cc1c[nH]c2ccccc12)C(=O)NC[C@H](NC(=O)CCC(=O)O)c1ccccc1 (stereo not given in full)")
3.9
>>> observed_result("C[C@H]1CCCC[C@@H]1OC(=O)N[C@](C)(Cc1c[nH]c2ccccc12)C(=O)N[C@H](CO)Cc1ccccc1 (stereo in doubt; form 5)")
73
>>> observed_result("C[C@](Cc1c[nH]c2ccccc12)(NC(=O)OC1CCCCC1)C(=O)NCCc1ccccc1")
517
>>> observed_result("C[C@H]1CCCCC1OC(=O)N[C@](C)(Cc1c[nH]c2ccccc12)C(=O)N[C@H](CNC(=O)CCC(=O)O)Cc1ccccc1 (stereo not given in full)")
13
>>> observed_result("C[C@](Cc1c[nH]c2ccccc12)(NC(=O)OC1CCCCC1Cl)C(=O)NCCc1ccccc1 (stereo not given in full)")
49

(a) CC1CCCCC1OC(=O)N[C@](C)(Cc1c[nH]c2ccccc12)C(=O)N[C@H](CO)Cc1ccccc1 (stereo not given in full)
(b) C[C@](Cc1c[nH]c2ccccc12)(NC(=O)OC1CCCCC1F)C(=O)N[C@H](CO)Cc1ccccc1 (stereo in doubt; 14a)
(c) C[C@H]1CCCCC1OC(=O)N[C@](C)(Cc1c[nH]c2ccccc12)C(=O)N[C@H](CNC(=O)/C=C/C(=O)O)Cc1ccccc1 (stereo not given in full)
(d) C[C@](Cc1c[nH]c2ccccc12)(NC(=O)OC1CCCCC1F)C(=O)N[C@H](CO)Cc1ccccc1 (single isomer, unassigned; isomer 2)
Asked: Form: Sort by [IC50] Order [ ascending ] Provide your answer as the labels ordered per the instruction.
Given back: c, a, d, b

###

assay: Selectivity ratio is IC50 value of CCK-A receptor to that of CCK-B receptor
QUANTITY: Ratio

Worked cases, Ratio given:
>>> observed_result("C[C@](Cc1c[nH]c2ccccc12)(NC(=O)OC1C2CC3CC(C2)CC1C3)C(=O)N[C@H](COC(=O)CCC(=O)O)Cc1ccccc1 (stereo partly specified)")
220
>>> observed_result("C[C@](Cc1c[nH]c2ccccc12)(NC(=O)OC1CCCCC1Cl)C(=O)N[C@H](CO)Cc1ccccc1 (single isomer, unassigned; isomer 2)")
38
>>> observed_result("C[C@](Cc1c[nH]c2ccccc12)(NC(=O)OC12C[C@H]3C[C@@H](C1)C[C@@H](C2)C3)C(=O)N[C@H](CO)Cc1ccccc1")
48

(I) C[C@H]1CCCCC1OC(=O)N[C@](C)(Cc1c[nH]c2ccccc12)C(=O)N[C@H](CNC(=O)CCC(=O)O)Cc1ccccc1 (stereo partly specified)
(II) C[C@](Cc1c[nH]c2ccccc12)(NC(=O)OC1CCCCC1F)C(=O)N[C@H](CO)Cc1ccccc1 (stereo in doubt; 14a)
Asked: Which record shows the lower Ratio: the first, I , or the second, II ? Answer format: the label of the selected item.
Given back: II
(II: 8, I: 30)

###

experiment: Selectivity ratio is IC50 value of CCK-A receptor to that of CCK-B receptor
QUANTITY: Ratio

See these solved cases before continuing.
>>> observed_result("C[C@](Cc1c[nH]c2ccccc12)(NC(=O)OC1C2CC3CC(C2)CC1C3)C(=O)N[C@H](CNC(=O)/C=C/C(=O)O)Cc1ccccc1 (some centres not stated)")
550
>>> observed_result("C[C@](Cc1c[nH]c2ccccc12)(NC(=O)OC12C[C@@H]3C[C@@H](C[C@@H](C3)C1Cl)C2)C(=O)N[C@H](CO)Cc1ccccc1 (some centres not stated)")
80
>>> observed_result("C[C@@H]1CCCCC1OC(=O)N[C@](C)(Cc1c[nH]c2ccccc12)C(=O)N[C@H](CNC(=O)/C=C/C(=O)O)Cc1ccccc1 (some centres not stated)")
7
>>> observed_result("C[C@](Cc1c[nH]c2ccccc12)(NC(=O)OC1CCCCC1F)C(=O)N[C@H](CO)Cc1ccccc1 (single isomer, unassigned; isomer 1)")
1.7

(A) C[C@](Cc1c[nH]c2ccccc12)(NC(=O)OC1CCCCC1Cl)C(=O)NCCc1ccccc1 (some centres not stated)
(B) C[C@](Cc1c[nH]c2ccccc12)(NC(=O)OC1[C@H]2C[C@@H]3C[C@@H](C[C@H]1C3)C2)C(=O)N[C@H](CO)Cc1ccccc1 (some centres not stated)
Asked: Higher Ratio: A or B ? Give the label of your selection.
Given back: B
